assay: soluble on expression in E. coli; label from the status in PepcDB or PDB records

{"Chain": "MSLTWYHELGIKYPLFQGGMAWASNAELVAAVSNNGALGIIGSGGRTANELRRMIRKTKTLTSQPFGVNLMLLDKNIKQLLEVICEEKISVVTTGAGSPKEIIDTIIANNIKLFPVVPNKEIALKMLNLPISGIIVEGNEAGGHVGSQNLASLLKEIAPICPLPLIAAGGIYDHHTASLANILGANGVQVGTAFLLAKECQISPIYQELICKGEENGTSLISDKNGHLTRLLNISSEYPLNKSLKAAVEKGDLINGAFMAGSSSAYLEKIEPVENIIQRIMKKEGHHHHHH", "soluble on expression in E. coli": "not soluble"}
{"Chain": "MGSDKIHHHHHHMPKKSFAQDCLYTAIMRLMREKDVDDITVKELVLKAGVARSTFYRYYTQPMDVLRDYLRPFNHGNAHLDDKDDKKVYLRRFYQYYTGHSELIYTLVQANKTEFLRETISCHILEVFSPMMTNKGVSPFLQKASVGLCVETLILWIVNDRKEKIEEMTDTVHNMVAVVERVS", "soluble on expression in E. coli": "not soluble"}
{"Chain": "MTKSQIMDLSNFYQDTDYPSGRLIALLILSLGLTPAEIANLKKADFDTTFNILSIEKSQMKRILKLPEDLLPFLLESLEEDGDLVFEHNGKPYSRQWFFNQLTDFLNEKNEQQLTAQLLREQFILKQKENGKTMTELSRLLGLKTPITLERYYRLEHHHHHH", "soluble on expression in E. coli": "not soluble"}
{"Chain": "MGSDKIHHHHHHMRGSSNIPLDWDKLRIFHAAAEAGSFTHAADKLHLSQSAISRQVSALEQDVGVKLFHRHARGLILTEQGELLYRTAHDVLLKLETVKMQLTETTEKPSGKLRVTTTVGLGQGWLTDKVQEFLQLYPDMSIQLILDNEELDVNMRHADCAIRLRQPQQSDLIQRKLFTVHMHVYAAPSYINRYGEPQTIEDLDNHRIISFGEPAPNYLLDVNWLEVAGRSSDNRRIPHLQINSQTSIKRACLLGIGVACMPDYIVGRDPGLIQLPINAEVPSFDTYFCYPDEMKNAAKLKVFRDFIVSKARNWNF", "soluble on expression in E. coli": "not soluble"}
{"Chain": "MTAFLPPNLLALFEARPPVQYLPPCQDLLVDKNAKRAPMTGVAQYIQLFEDPKDTPAKIPVVTKAEAKEEKRRQKDELLAYKVEQGIATWNPAENPRASEDPYRTLFVGRINYETSESKLRREFEAYGKIKKLTMVHDEAGKPRGYAFIEYSDKAEMHTAYKKADGIKVDGKRLVVDYERGRTQKTWLPRRLGGGKGDTRKTREAKSVIEEREIASGFGGGYEDRDRERSGSRDRRQDSYRNGGGNDRDRRESSGGFRDNRGGGGGFGGGGRDRFNDRSGGGGYGGDRDRGGDRGGDRGGSRYSTGGGSGGGYRSGGGSSGGGGGGRYGDRR", "soluble on expression in E. coli": "not soluble"}
{"Chain": "MGSDKIHHHHHHMDGRGLKAYATPIRKFWVVLLQQRRMAMAENEKYLDWAREVLHTEAEGLREIAAELDENFVLAADALLHCKGRVVITGMGKSGHIGRKMAATMASTGTPAFFVHPAEAAHGDLGMIVDNDVVAAISNSGESDEITAIIPALKRKDITLVCITARPDSTMARHADIHITASVSQEACPLGLAPTTSTTAVMALGDALAVVLLRARAFTPDDFALIHPAGSLGKRLLLRVADIMHKGGGLPAVRLGTPLKGAIVSMSEKGLGMLAVTDGQGCLKGVFTDGDLRRLFQECDNFTGLSIDEVMHTHPKTISAERLATEALKVMQANHVNGLLVTDADGVLTGALNMHDLLAARIV", "soluble on expression in E. coli": "not soluble"}
{"Chain": "SLPVSYIENQSAVINQGDFLTQLSNIKNYSSKLSTNFYDNYEKITNWVLSGANINELTQFNIQPQIMRGFDGFQNVLMTGYYSPILYARHSPQGQFKNPIYRMPVKKRLSRAQIYAGALAGKRLELAYSDSMLENFLLGVQGSGYVDFGDGNLNYFAYAGQNGYPYTAIGRLLVEDGEIPKEKMSIQAIREWGNRNPSRIQSLLERNEAYVFFKNDPSGKVKGSAGVPLVAMASVASDRNIIPSGSVLLVEVPDIDNNGNWLGTHKLHLMVALDVGGAVKGHHFDLYRGIGARAGHIAGLSKHYGRVWVLR", "soluble on expression in E. coli": "soluble"}
{"Chain": "MLYINSFLDRMGEIIRGEKSVEEADKLLDQKNIFEMFRSDCEEILNLYKSGKAEKEEVQRNFYLLKTYVVSQLSIHFERLKEFAESKGFKIEKKLDPEVINEIALYIDRVEKEV", "soluble on expression in E. coli": "soluble"}
{"Chain": "MPWGWIEALLGHACPGCGGPLDLPALCGRCRAGLEAFSTGEMVYLGHYARVGPLVRALKYGRREALARALAEPLARAVAARGWRLQGVTAVPTLPHRLALRGYNPPEVLARALAKALGVPYRPVLFRRRYTPGQPTRGFKERRFLPGDLFGARVRVEGAWLLVDDVLTSGATFLRARGALLEAGAAHVYGAFLAVRDPRALGPYR", "soluble on expression in E. coli": "soluble"}
{"Chain": "MQDELFETEKIPPKNTKNTKNAPKKSFEEHVHSLERAIDRLNDPNLSLKDGMDLYKTAMQELFLAQKLLENAYLEHEKLQTPDQKA", "soluble on expression in E. coli": "not soluble"}
{"Chain": "MIIQNEFNLYPSNMLPERFCYPEKYVRISNDTSLIPYIQPHNFHWWFENYGTEGAEVAYIFRNSILPDLNLIPFASNGEWEAYFDGNDVTGNSRVIVINLDNIENHEFFNSFEDWLELAIKDTW", "soluble on expression in E. coli": "not soluble"}
{"Chain": "MAIALSTLVEEADRYLDAARIQDYCPNGLQVEGRPQVRRIVSGVTASQALLDAAVEADADVVLVHHGYFWKGENPCVVGMKQRRLKTLLNNDISLLAYHLPLDLHPEVGNNVQLARQLGFEVEGPLEPGNPRSIVLLGSLAEPMQPADFARHVRDALGREPLLVDAGQPIRRIAWCTGGAQGYIDQAIAAGVDAYLTGEVSEQTVHSARENGISFIAAGHHATERYGVQALGDYLGKRFAIEHLFIDCPNPALEHHHHHH", "soluble on expression in E. coli": "soluble"}
